SYSTEM: hERG-encoded potassium channel (Homo sapiens)
Sequence (Q12809 whole entry): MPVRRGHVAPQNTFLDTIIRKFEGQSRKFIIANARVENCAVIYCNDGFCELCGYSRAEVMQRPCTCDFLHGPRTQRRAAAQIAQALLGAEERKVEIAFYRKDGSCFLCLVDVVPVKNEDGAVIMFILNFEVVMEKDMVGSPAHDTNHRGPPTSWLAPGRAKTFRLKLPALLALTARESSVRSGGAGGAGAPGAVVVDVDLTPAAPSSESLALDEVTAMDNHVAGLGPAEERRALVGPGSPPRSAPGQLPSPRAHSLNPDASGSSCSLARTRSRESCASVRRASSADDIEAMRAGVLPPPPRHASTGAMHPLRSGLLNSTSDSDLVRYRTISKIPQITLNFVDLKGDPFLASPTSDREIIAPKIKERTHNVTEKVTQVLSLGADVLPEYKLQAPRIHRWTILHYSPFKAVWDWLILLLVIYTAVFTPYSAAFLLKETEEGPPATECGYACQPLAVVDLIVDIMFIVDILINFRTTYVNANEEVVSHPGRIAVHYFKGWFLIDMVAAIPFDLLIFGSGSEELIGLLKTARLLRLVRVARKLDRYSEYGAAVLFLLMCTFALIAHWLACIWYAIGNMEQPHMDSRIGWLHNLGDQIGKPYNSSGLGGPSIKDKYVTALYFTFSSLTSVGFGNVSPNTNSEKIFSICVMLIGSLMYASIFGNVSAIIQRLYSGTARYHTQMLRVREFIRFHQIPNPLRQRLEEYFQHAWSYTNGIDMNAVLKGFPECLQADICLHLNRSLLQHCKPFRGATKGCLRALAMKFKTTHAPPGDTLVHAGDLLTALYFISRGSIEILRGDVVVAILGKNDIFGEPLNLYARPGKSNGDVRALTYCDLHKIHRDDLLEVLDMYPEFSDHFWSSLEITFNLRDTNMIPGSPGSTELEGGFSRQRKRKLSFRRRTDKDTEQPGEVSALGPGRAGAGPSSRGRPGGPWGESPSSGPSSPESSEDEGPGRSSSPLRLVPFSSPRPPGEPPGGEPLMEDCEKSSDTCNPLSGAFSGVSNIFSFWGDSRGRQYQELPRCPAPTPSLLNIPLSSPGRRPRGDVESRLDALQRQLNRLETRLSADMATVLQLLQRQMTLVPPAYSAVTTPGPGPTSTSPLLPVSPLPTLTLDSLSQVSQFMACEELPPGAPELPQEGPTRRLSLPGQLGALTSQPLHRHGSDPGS
METHOD SUMMARY: Activity against hERG (planar-array-based voltage clamp)
pIC50: −log10 of the molar value.
METRIC: pIC50

[[record]]
molecule = "CN(C[C@@H](CCN1CC(N2CCOCC2)C1)c1ccc(F)cc1)C(=O)c1cc(Cl)cc(C(F)(F)F)c1 [Ex1]"
system = "hERG-encoded potassium channel (Homo sapiens)"
metric = "pIC50"
test_value = 5.07


---

SYSTEM: CYP3A4 (Homo sapiens)
Sequence (P08684 whole entry): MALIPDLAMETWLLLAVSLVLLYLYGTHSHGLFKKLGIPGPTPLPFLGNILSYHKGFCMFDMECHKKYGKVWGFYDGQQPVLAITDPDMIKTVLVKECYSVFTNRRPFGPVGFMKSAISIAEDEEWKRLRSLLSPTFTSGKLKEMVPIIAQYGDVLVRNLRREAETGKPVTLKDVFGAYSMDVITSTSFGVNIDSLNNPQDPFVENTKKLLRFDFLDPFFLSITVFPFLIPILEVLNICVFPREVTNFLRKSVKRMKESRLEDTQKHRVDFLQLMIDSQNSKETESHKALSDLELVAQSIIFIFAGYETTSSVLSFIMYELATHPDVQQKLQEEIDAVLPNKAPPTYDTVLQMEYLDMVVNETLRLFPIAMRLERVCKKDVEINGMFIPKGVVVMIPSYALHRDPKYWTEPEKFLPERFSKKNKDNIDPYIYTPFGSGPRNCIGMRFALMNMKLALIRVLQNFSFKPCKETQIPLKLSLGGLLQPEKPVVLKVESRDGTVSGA
METRIC: IC50

[[record]]
compound = "CN(C[C@@H](CCN1CC(N2CCOCC2)C1)c1ccc(F)cc1)C(=O)c1cc(Cl)cc(C(F)(F)F)c1 [Ex1]"
metric = "IC50"
test_value = "> 50 µM"

